src = ChEMBL document CHEMBL5352457

assay: physchem; settings: buffer, pH 7
observed-property: solubility (µM)
// units = µM; emit number, no label

Provide measured solubility value, entry: C=CC(=O)N1CC[C@@H](N2N=C(Nc3ccc(Oc4ccccc4)cc3)c3c[nH]c4ncnc2c34)C1
174

###

test: in vivo; conditions: Sprague-Dawley, rat, po, 10 mg/kg
observed-property: bioavailability at 24 h (%)
// units = %; emit number, no label

Provide measured bioavailability at 24 h value, entry: C=CC(=O)N1CC[C@@H](N2N=C(Nc3ccc(Oc4ccccc4)cc3)c3c[nH]c4ncnc2c34)C1
3.6

###

assay: in vivo; conditions: Sprague-Dawley, rat, iv, 1 mg/kg
observed-property: AUC at 24 h (ng·h/mL)
// units = ng·h/mL; emit number, no label

Provide measured AUC at 24 h value, entry: C=CC(=O)N1CC[C@@H](N2N=C(Nc3ccc(Oc4ccccc4)cc3)c3c[nH]c4ncnc2c34)C1
454

###

assay: in vivo; settings: Sprague-Dawley, rat, plasma, po, 10 mg/kg
observed-property: concentration at 1 h (nM)
// units = nM; emit number, no label

Provide measured concentration at 1 h value, entry: C=CC(=O)N1CC[C@@H](N2N=C(Nc3ccc(Oc4ccccc4)cc3)c3c[nH]c4ncnc2c34)C1
125

###

assay: in vivo; conditions: Sprague-Dawley, rat, po, 10 mg/kg
observed-property: AUC at 24 h

Provide measured AUC at 24 h value, entry: C=CC(=O)N1CC[C@@H](N2N=C(Nc3ccc(Oc4ccccc4)cc3)c3c[nH]c4ncnc2c34)C1
164 ng·h/mL

###

assay: physchem; details: buffer, pH 7.4
observed-property: remaining at 24 h (%)
// units = %; emit number, no label

Provide measured remaining at 24 h value, entry: C=CC(=O)N1CC[C@@H](N2N=C(Nc3ccc(Oc4ccccc4)cc3)c3c[nH]c4ncnc2c34)C1
80.2
